Data origin, for the record: paper PMC6073568

# Test system: LXRα (Homo sapiens, UniProt Q13133)
# Construct: CMX-GAL4N-hLXRα-LBD; expressed in transfected cells; host or cells: HEK293
# Sequence (Q13133 209-447 limits assumed): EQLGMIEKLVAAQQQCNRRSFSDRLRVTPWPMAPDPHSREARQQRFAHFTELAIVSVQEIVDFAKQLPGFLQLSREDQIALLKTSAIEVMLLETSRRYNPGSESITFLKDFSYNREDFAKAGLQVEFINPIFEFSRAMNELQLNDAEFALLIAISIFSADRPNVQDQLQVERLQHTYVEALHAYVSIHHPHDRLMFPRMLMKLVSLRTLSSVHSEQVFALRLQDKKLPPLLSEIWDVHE
# Test name: LXRα reporter gene assay in HEK293
# Type: cell-based
# Experimental conditions: read-out: LXRα antagonistic activity (IC50)
Measurement kind: IC50 (µM)

Sample answers from the record:
{"Molecule": "CCCCn1c(=O)c2ccccc2c2cc(C(O)(C(F)(F)F)C(F)(F)F)c(OC)c(OC)c21 [Compound 25]", "Measurement kind": "IC50", "Unit abbrev": "µM", "Number": 8.5}
{"Molecule": "CCCCn1c(=O)c2ccccc2c2cc(C(O)(C(F)(F)F)C(F)(F)F)cc(OC)c21 [Compound 20]", "Measurement kind": "IC50", "Unit abbrev": "µM", "Number": 6.9}
{"Molecule": "CCCCn1c(=O)c2ccc(C)cc2c2cc(C(O)(C(F)(F)F)C(F)(F)F)ccc21 [Compound 36]", "Measurement kind": "IC50", "Unit abbrev": "µM", "Number": 12}
{"Molecule": "CCCCn1c(=O)c2ccc(OC)cc2c2cc(C(O)(C(F)(F)F)C(F)(F)F)ccc21 [Compound 23]", "Measurement kind": "IC50", "Unit abbrev": "µM", "Number": 7}

1: O=c1[nH]c2c(Cl)cc(C(O)(C(F)(F)F)C(F)(F)F)cc2c2ccccc12 [Compound 43]
2: CCCCn1c(=O)c2ccccc2c2cc(C(O)(C(F)(F)F)C(F)(F)F)c(OC)cc21 [Compound 19]
// pick min by IC50: 1 , 2 Pick one and reply with its label. 1
(1: 5.3 µM, 2: 8.4 µM)
